Tested on: HOP-92 NSCLC
Experiment: NCI-60 one-dose screen, 48 h (100 = growth as untreated, 0 = no growth, -100 = all killed)
Conditions: 10 µM unless noted
This is part of a sample that, as a whole, favours compounds with a hit. Of some 83,000 tested, about 20% had one in any assay.
Assign classes using reported growth values and the ranges low (below 30%), moderate (30% to below 70%), high (70% or more), please.

For orientation, consider the following solved cases.
Lab log: C#CCN(C)CCCOc1ccc(NCc2ccc(/C=C/C(=O)NO)cc2)cc1Cl — assign growth category
low

Band of COc1cc2cc(Oc3ccc(NC(=O)c4cc(C(F)(F)F)cc(C(F)(F)F)c4)cc3)c(C)nc2cc1OCCN1CCOCC1 ?
moderate

Bin this entry: COc1ccc(Cn2cc(C#N)c(N)c2C(C)=O)cc1
high

Hey, which category is COC(=O)CNC(=O)c1cccc(-c2cc(=O)c3c(OC)c(OC)c(OC)cc3o2)c1 in, do you know?
moderate

Record N#Cc1nc(-c2ccccc2)oc1N1CCC(C2(C(F)(F)F)N=N2)CC1 — which class?
high

# evaluate next
Bin this entry: CN1CCN(c2ccc(Nc3nc(NCCCNS(=O)(=O)c4ccc(Cl)cc4)c4sccc4n3)cc2)CC1
moderate

---

System: 786-0 renal
Assay: NCI-60 one-dose screen, 48 h
Details: 10 µM unless noted
This is part of a sample that, as a whole, favours compounds with a hit. Of some 83,000 tested, about 20% had one in any assay. Calls of active or inactive are those of the source. Rule for the calls: active = growth percent below 10; inactive = the rest.
Please answer using one outcome listed in active, inactive

Recorded results for 3 compounds are shown here.
Test call, this compound: Cc1ncn(-c2ccc(/C=N/Nc3ccnc4cc(Cl)ccc34)cc2)c1C
active

Please state the recorded outcome for this compound: NC1[C@H]2CN(c3cnc(C(=O)Nc4cc(F)cc5cccnc45)cn3)C[C@@H]12 (stereo not given in full)
inactive

What classification did C=CCSC1=NC2C(N(CC)C(=O)N2CC)N1/N=C/C=C/c1ccccc1OC (stereo not given) end up with in this test?
inactive

Next:
For this compound, state the assay outcome: O=S(=O)(Oc1ccc(-c2cn3ccsc3n2)cc1)c1cccc(C(F)(F)F)c1
inactive

Which outcome was assigned to O=C(CSc1nc2ccccc2c(=O)n1-c1ccc(S(=O)(=O)Nc2ccc(Cl)nn2)cc1)Nc1ccc(S(=O)(=O)Nc2ccc(Cl)nn2)cc1 in this test?
inactive

For this compound, state the assay outcome: C#C[C@]1(O)CC[C@H]2[C@@H]3CC=C4c5sc(N6CCN(C)CC6)nc5CC[C@]4(C)[C@H]3CC[C@@]21C
active

---

Test system: SN12C renal
Assay: NCI-60 one-dose screen, 48 h
Details: 10 µM unless noted
The panel holds about 83,000 compounds, 20% with a hit somewhere; the sample as a whole holds those more often. Active and inactive are the calls of the source. Rule for the calls: active = growth percent below 10; inactive = the rest.
Pick from t (active), f (inactive) when you respond.

Hi team, can someone confirm the assay call for O=C(CCCCCCNC(=O)C(O)(O)C(F)(F)F)Nc1ccc(Cl)cc1 ?
f

Query molecule follows.
What was the test verdict on O=C(CCCCCCNC(=O)C(O)(O)C(F)(F)F)Nc1nc2ccccc2s1 ?
f

---

Test system: SF-295 CNS
Assay: NCI-60 one-dose screen, 48 h
Conditions: 10 µM unless noted
This is part of a sample that, as a whole, favours compounds with a hit. Of some 83,000 tested, about 20% had one in any assay. The source made the active and inactive calls. The calls were made as follows: active = growth percent below 10; inactive = the rest.
Bench note: report the call from active, inactive

Some solved cases for reference:
Assay outcome for O=C(/C=C/c1csc(Br)n1)NO : what was it?
active

# lookup: test call for CN1CCN(c2ccc(Nc3nc(NCCCNS(=O)(=O)c4cccc5ccccc45)c4sccc4n3)cc2)CC1
active

// return assay outcome for Cc1[nH]c(C(=O)Nc2ccc(C(N)=O)cc2N2CCOC(C)C2)c(Cl)c1Cl (stereo not given)
inactive

Further cases:
Just curious, what result did CNC(=O)c1cc(-c2ccc(NC(=S)Nc3cccc(C(F)(F)F)c3)cc2)nc2cccnc12 get here?
inactive

Any idea what this test logged for N#Cc1c(-c2cccs2)cc(-c2cnccn2)nc1SCC(=O)N/N=C/c1ccncc1 ?
inactive

---

System: OVCAR-4 ovarian
Assay: NCI-60 one-dose screen, 48 h
Details: 10 µM unless noted
The panel holds about 83,000 compounds, 20% with a hit somewhere; the sample as a whole holds those more often. The source made the active and inactive calls. How the source made its calls: active means growth percent below 10; inactive means the rest.
Returns: one label drawn from active, inactive

Solved cases below.
Hello, I am checking results. What call was entered for CCc1cc2c(cc1Cl)nc1c(=O)[nH]c(=O)nc-1n2CCOCC(C)C ?
inactive

What was the test verdict on CCNC(=O)Oc1ccc(/C(=C(/C)c2ccc(OC)cc2)c2ccc(OCCN3CCCCCC3)cc2)cc1 ?
inactive

Can you look up the reported call for CNCCN(C)c1ccc(Nc2cc(NC3CC3)n3ncc(C#N)c3n2)cc1NC(C)=O for me?
active

Kindly review the next compound as well.
Please let me know the test result on file for C=C(C)[C@@H]1CC[C@]2(C(=O)NC3CCCCC3)CC[C@]3(C)[C@H](CC[C@@H]4[C@@]5(C)CC[C@H](N)C(C)(C)[C@@H]5CC[C@]43C)[C@@H]12 .
inactive

---

System: NCI-H23 lung
Assay: NCI-60 one-dose screen, 48 h
Details: 10 µM unless noted
Compounds without any hit were thinned out: in the full panel of roughly 83,000, 20% have a hit. Activity calls are given as the source filed them. The calls were made as follows: active = growth percent below 10; inactive = the rest.
The reply should be one of these categories: active, inactive

What did this assay record as the result for COc1cccc(N2CCN(C3=C(Cl)C(=O)c4ncccc4C3=O)CC2)c1 ?
inactive

What did this assay record as the result for Clc1ccc2c(N/N=C/c3c[nH]c4ccccc34)ccnc2c1 ?
active

State the result this test recorded for O=C(CSc1nnc(-c2cccs2)n1-c1ccccc1)Nc1ccccc1F .
inactive

What classification did Cc1ccccc1Nc1nc(SC(C)C)nc(-c2ccccc2)c1C#N end up with in this test?
inactive

We next turn to a different compound, shown below.
What is the recorded call for this compound in the test? CN1CCN(Cc2ccc(NC(=O)c3cncc(C#Cc4cnc5ccc(N6CCOCC6)nn45)c3)cc2C(F)(F)F)CC1
active

---

Test system: OVCAR-3 ovarian
Assay: NCI-60 one-dose screen, 48 h
Conditions: 10 µM unless noted
About 83,000 compounds went through this panel and 20% of them were active in at least one assay; those are over-represented in the sample as a whole. The source made the active and inactive calls. How the source made its calls: active means growth percent below 10; inactive means the rest.
Select the matching outcome among true (1) for active, false (0) for inactive

Example cases with answers are listed next.
Given Cc1ccc2c(n1)C(=O)C(Cl)=C(Nc1ccc(C#N)cc1)C2=O , state the outcome it received in this test.
true (1)

I'd appreciate the recorded outcome for Cc1ccc2c(n1)C(=O)C(Cl)=C(Nc1ccc(C(F)(F)F)cc1)C2=O from this test.
true (1)

Lab log entry: Cn1c(SCC(=O)c2ccc(Br)cc2)nc2ccccc2c1=O — outcome as called in the assay?
false (0)

Continuing:
# outcome recorded in this test, key = O=C(/C=C/c1cccc(F)c1)c1cccc(OCCCOc2cccc(C(=O)/C=C/c3cccc(F)c3)c2)c1
false (0)

Lab log entry: Cc1ccc(NC2=C(Cl)C(=O)c3nc(C)ccc3C2=O)c(C)c1 — outcome as called in the assay?
true (1)

Which result was noted for this compound in the test: Cc1nc(/N=C(N)/N=C(\N)c2cccc(Br)c2)sc1C
false (0)

Which outcome was entered for the compound COc1cc2oc(-c3cccc(NC(=O)c4cccc([N+](=O)[O-])c4)c3)cc(=O)c2c(OC)c1OC in this test?
false (0)

Record request — test call for C/C=C/CC(C)C(O)[C@H](NC(=O)[C@@H]1CCCN1C(=O)[C@](C)(CC)NC(=O)CCCCCCCCC)C(=O)N[C@@](C)(CC)C(=O)N[C@@H](CCC(N)=O)C(=O)N[C@H](CCC(N)=O)C(=O)NC(C)(C)C(=O)NC(C)(C)C(=O)N[C@@H](CCC(N)=O)C(=O)N[C@H](CC(C)C)C(=O)N[C@H](CO)CC(C)C (stereo partly specified)
true (1)

Which outcome was assigned to CCOC(=O)c1c(NC(=O)c2ccc(C(F)(F)F)cc2)sc2c(CN3CCN(C)CC3)c(O)ccc12 in this test?
true (1)

For CCOC(=O)c1ccccc1NC1=C(Cl)C(=O)c2nc(C)ccc2C1=O , which call appears in the assay record?
false (0)

What outcome does the record of this test show for NCCNC(=O)c1cccc(COc2ccccc2NC(=O)c2cc(Br)c(Br)[nH]2)c1 ?
false (0)

Fill in: this test's call for COc1ccc2c(c1)c(-c1nc(N)nnc1-c1c[nH]c3ccccc13)cn2C is ___
false (0)

// return assay outcome for C=C(C)[C@@H]1CC[C@]2(COCCCNCCCN)CC[C@]3(C)[C@H](CC[C@@H]4[C@@]5(C)CC[C@H](O)C(C)(C)[C@@H]5CC[C@]43C)[C@@H]12
true (1)

Status in this test for Nc1ncc(-c2ccc3ncnc(NCc4ccccc4)c3c2)cn1 ?
false (0)

Test call, this compound: O=C(CSc1nnc(-c2ccc(Cl)cc2)n1-c1ccccc1)Nc1ccccc1Cl
false (0)

Hello, I am checking results. What call was entered for Cc1[nH]c(C(=O)Nc2ccccc2OCc2cccc(C(=O)NCCN)c2)cc1Cl ?
false (0)

Outcome logged for CC1=C(C)C(=O)C(Nc2ccc(C)c(C)c2)=C(Br)C1=O in this assay:
false (0)

What outcome does the record of this test show for CCOC(=O)c1c(NC(=O)c2cccc(C(F)(F)F)c2)sc2c1CCC(=O)C2 ?
false (0)

Per the records of this test, what outcome belongs to NCCNC(=O)c1cccc(COc2ccccc2NC(=O)c2cc(Cl)c(Cl)[nH]2)c1 ?
false (0)

What outcome does the record of this test show for CC(=O)OCCCCN1C=C/C(=C\C(=O)n2ccc3ccccc32)c2ccccc21 ?
false (0)

Which result was noted for this compound in the test: COc1ccc(C(C)=C(c2ccc(OCCN3CCCCCC3)cc2)c2ccc(OCCN3CCCCCC3)cc2)cc1
true (1)

What was the test verdict on C#C[C@]1(O)CC[C@H]2[C@@H]3CC=C4c5sc(Nc6ccc(C)cn6)nc5CC[C@]4(C)[C@H]3CC[C@@]21C ?
false (0)

Hi, sorry to bother you, what did the test record for CCOC(=O)c1c(NC(=O)c2ccc(C(F)(F)F)cc2)sc2c3c(ccc12)OCN(C)C3 ?
true (1)

Which outcome was entered for the compound Cn1cc(-c2cc3ncnc(Nc4ccc(NC(=O)Nc5cc(C(C)(C)C)on5)cc4)c3s2)cn1 in this test?
false (0)
